organism: Rattus norvegicus; test: Open TG-GATES - Regimen: Daily Repeat; format: toxicity, organism-based, Sprague-Dawley; design: regimen Daily Repeat, gender Male, age 6 weeks; conditions: in vivo, po, 1000 mg/kg, […], tissue Plasma, route gavage, dose level High, time 28 day
What Cl was measured for each of the following?
Reply with just the number (in meq/L).

The compound listed as O=C(O)c1ccccc1Nc1ccccc1 [FENAMIC ACID] has a reported Cl of 105

Please fill in: Cl reported for CC(S)C(=O)NCC(=O)O (centres undefined) [TIOPRONIN] = 104.2

Quick note, Cl for CCCCNC(=O)NS(=O)(=O)c1ccc(C)cc1 [TOLBUTAMIDE] landed at 105.2

Value of measured Cl for the entry CC(=O)[C@@]1(O)CC[C@H]2[C@@H]3C=C(Cl)C4=CC(=O)CC[C@]4(C)[C@H]3CC[C@@]21C [CHLORMADINONE] : 105.2

* * *

species: Rattus norvegicus; test: Open TG-GATES - Regimen: Single; assay type: toxicity, organism-based, Sprague-Dawley; parameters: regimen Single, gender Male, age 6 weeks; settings: in vivo, po, 0 mg/kg, 3 h, tissue Plasma, route gavage, dose level Control
MEASURED ENDPOINT: gamma-GTP (IU/L)
Lab book: enter the figure in IU/L, no units written.

The compound CC(S)C(=O)NCC(=O)O (stereo not given) [TIOPRONIN] showed gamma-GTP equal to 1.8

Reported gamma-GTP of COc1cc2ncnc(Nc3ccc(F)c(Cl)c3)c2cc1OCCCN1CCOCC1 [GEFITINIB] : 1.1

The compound listed as CCN(CC)C(=S)SSC(=S)N(CC)CC shows gamma-GTP equal to 1

Record O=c1ccc2ccccc2o1 [COUMARIN] , field gamma-GTP: 1.6

Just so you know, measured gamma-GTP for C=C[C@H]1C[N@@]2CC[C@H]1C[C@@H]2[C@@H](O)c1ccnc2ccc(OC)cc12 [QUINIDINE] came out at 1.8

According to the records, this compound NS(=O)(=O)c1cc(C(=O)O)c(NCc2ccco2)cc1Cl [FUROSEMIDE] displays gamma-GTP of 0.6

Record summary for CN(C/C=C/C#CC(C)(C)C)Cc1cccc2ccccc12 [TERBINAFINE] : reported gamma-GTP = 1

Record CCCCNC(=O)NS(=O)(=O)c1ccc(C)cc1 [TOLBUTAMIDE] , field gamma-GTP: 1

Data point: Nc1ccc(Cc2ccc(N)cc2)cc1 ; gamma-GTP = 1

// field: gamma-GTP; key: O=C(O)c1ccccc1Nc1ccccc1 [FENAMIC ACID] ; value = 1

response.value for CCO [ALCOHOL] (field: gamma-GTP) = 1.4

// sample CC(=O)[C@@]1(O)CC[C@H]2[C@@H]3C=C(Cl)C4=CC(=O)CC[C@]4(C)[C@H]3CC[C@@]21C [CHLORMADINONE] , its gamma-GTP was 1.8

For CN(C)CCCN1c2ccccc2Sc2ccc(Cl)cc21 [CHLORPROMAZINE] the compound record lists gamma-GTP as 1

Noted for COc1ccc([C@@H]2Sc3ccccc3N(CCN(C)C)C(=O)[C@@H]2OC(C)=O)cc1 [DILTIAZEM] : its gamma-GTP reads 1

Looking up CN(CCOc1ccc(CC2SC(=O)NC2=O)cc1)c1ccccn1.O=C(O)/C=C\C(=O)O (stereo not given) [ROSIGLITAZONE MALEATE] , I see its gamma-GTP listed as 0.6

// provenance: ChEMBL document CHEMBL3885861
